target: 3',5'-cyclic-AMP phosphodiesterase 4A (Homo sapiens, UniProt P27815)
Sequence (P27815 whole entry): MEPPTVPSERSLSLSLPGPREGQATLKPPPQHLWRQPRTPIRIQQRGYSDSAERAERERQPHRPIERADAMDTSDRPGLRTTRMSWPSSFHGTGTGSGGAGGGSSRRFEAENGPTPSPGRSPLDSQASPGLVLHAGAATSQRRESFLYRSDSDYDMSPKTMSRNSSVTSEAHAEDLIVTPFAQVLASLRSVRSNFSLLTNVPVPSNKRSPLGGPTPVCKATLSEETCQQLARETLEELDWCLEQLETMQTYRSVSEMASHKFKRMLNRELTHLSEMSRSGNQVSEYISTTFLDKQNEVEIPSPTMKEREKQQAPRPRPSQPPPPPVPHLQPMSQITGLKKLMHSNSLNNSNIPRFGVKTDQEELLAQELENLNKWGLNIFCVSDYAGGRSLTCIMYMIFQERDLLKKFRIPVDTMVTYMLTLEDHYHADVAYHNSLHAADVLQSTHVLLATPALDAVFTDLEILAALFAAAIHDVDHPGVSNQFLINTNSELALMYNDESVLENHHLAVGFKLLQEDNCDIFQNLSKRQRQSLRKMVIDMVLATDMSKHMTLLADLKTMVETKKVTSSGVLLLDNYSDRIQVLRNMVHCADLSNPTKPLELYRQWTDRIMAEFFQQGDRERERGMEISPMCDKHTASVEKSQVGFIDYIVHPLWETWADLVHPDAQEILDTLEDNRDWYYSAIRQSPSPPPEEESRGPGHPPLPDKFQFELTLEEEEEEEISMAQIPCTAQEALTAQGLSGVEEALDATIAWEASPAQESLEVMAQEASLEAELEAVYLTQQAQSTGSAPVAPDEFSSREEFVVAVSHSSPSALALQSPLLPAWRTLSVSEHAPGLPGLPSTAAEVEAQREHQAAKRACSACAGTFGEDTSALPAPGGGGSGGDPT
molecules and their reported IC50
observedProperty: IC50 (µM)

>>> result("COc1ccccc1-c1nnc2n1N=C(c1ccc(OC(F)F)c(OCC3CC3)c1)CS2")
0.035
>>> result("COc1ccc(C2=Nn3c(nnc3-c3ccccc3OC)SC2)cc1O[C@@H]1CCOC1")
0.011
>>> result("COc1ccc(C2=Nn3c(nnc3-c3ccccc3OC)SC2)cc1OC1CCCC1")
0.032
>>> result("COc1ccc(C2=Nn3c(nnc3-c3ccccc3F)SC2)cc1OC1CCOC1 (stereo unspecified)")
0.011
>>> result("COc1ccc(C2=Nn3c(nnc3-c3ccccc3OC)SC2)cc1OC1CCOC1 (stereo unspecified)")
0.02
>>> result("COc1ccc(C2=Nn3c(nnc3-c3ccccc3F)SC2)cc1OC1CCCC1")
0.033

* * *

assay: Metabolic stability in rat assessed as half life; assay type: ADME, organism-based; details: in vivo
observedProperty: half-life (min)

>>> result("COc1ccc(OC)c(-c2nnc3n2N=C(c2ccc(OC)c(OCC4CC4)c2)CS3)c1")
3
>>> result("COc1ccc(OC)c(-c2nnc3ccc(-c4ccc(OC)c(O[C@@H]5CCOC5)c4)nn23)c1")
3
>>> result("COc1ccc(OC)c(-c2nnc3n2N=C(c2ccc(OC)c(OC4CCCC4)c2)CS3)c1")
3

* * *

experiment: Inhibition of PDE4A1A
pIC50: −log10 of the molar value.
observedProperty: pIC50

>>> result("COc1ccc(OC)c(-c2nnc3ccc(-c4ccc(OC)c(O[C@@H]5CCOC5)c4)nn23)c1")
9.22

* * *

target: cGMP-inhibited 3',5'-cyclic phosphodiesterase 3A (Homo sapiens, UniProt Q14432)
Sequence (Q14432 whole entry): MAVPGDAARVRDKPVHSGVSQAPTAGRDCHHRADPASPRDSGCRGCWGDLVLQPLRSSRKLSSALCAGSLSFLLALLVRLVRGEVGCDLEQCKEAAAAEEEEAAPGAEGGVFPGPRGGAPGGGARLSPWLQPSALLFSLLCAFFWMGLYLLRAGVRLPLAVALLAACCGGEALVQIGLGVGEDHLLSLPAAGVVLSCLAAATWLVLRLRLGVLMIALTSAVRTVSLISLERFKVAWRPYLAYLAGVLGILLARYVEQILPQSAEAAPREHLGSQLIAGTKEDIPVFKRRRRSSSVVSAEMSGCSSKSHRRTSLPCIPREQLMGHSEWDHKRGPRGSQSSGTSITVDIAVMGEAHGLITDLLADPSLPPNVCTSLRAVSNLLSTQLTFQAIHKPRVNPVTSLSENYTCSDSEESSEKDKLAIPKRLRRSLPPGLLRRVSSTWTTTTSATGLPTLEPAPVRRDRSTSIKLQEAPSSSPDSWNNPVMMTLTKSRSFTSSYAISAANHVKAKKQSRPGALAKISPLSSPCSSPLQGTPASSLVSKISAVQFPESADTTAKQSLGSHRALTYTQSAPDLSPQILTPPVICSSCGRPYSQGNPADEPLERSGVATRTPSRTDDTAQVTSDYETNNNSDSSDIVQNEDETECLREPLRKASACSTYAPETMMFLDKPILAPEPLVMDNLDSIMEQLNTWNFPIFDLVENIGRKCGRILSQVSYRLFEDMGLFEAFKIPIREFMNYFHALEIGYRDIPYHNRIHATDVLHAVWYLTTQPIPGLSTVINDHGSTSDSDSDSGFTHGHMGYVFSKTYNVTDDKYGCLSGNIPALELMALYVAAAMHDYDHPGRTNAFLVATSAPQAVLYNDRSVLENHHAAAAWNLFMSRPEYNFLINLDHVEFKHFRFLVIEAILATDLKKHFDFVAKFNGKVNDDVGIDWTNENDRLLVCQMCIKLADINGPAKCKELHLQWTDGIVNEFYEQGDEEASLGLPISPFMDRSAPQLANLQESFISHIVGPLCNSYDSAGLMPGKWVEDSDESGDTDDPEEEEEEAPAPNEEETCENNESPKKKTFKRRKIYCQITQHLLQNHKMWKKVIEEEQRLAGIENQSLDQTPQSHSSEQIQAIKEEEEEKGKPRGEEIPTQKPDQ
observedProperty: IC50 (nM)

>>> result("COc1ccc(OC)c(-c2nnc3n2N=C(c2ccc(OC)c(OC)c2)CS3)c1")
1700
